Biological target: human HER2 (23-652) (Homo sapiens)
Test: Surface plasmon resonance (SPR) for assessment of peptide affinity, human HER2
Format: binding
Parameters: towards human HER2 (23-652) and mouse HER2 (23-653); made in house
Where a name gives a salt, the structure may show the parent alone. Positions of bridges follow the written chain, without caps; N, C: chain ends. Non-standard residues stand in square brackets, D forms with d. Residues, ends and D or L forms follow the SMILES beside them. Trp(5-OH) = N[C@@H](Cc1c[nH]c2ccc(O)cc12)C(=O)O; NMePhe(4-F) = CN[C@@H](Cc1ccc(F)cc1)C(=O)O; NMehPhe = CN[C@@H](CCc1ccccc1)C(=O)O; Aad = N[C@@H](CCCC(=O)O)C(=O)O; Gly(cPr) = N[C@H](C(=O)O)C1CC1; NMeDap = CN[C@@H](CN)C(=O)O; NMeS = CN[C@@H](CO)C(=O)O
PARAMETER MEASURED: Kd (nM)
Answers are plain numbers, in nM.

Dear colleague, I am looking for the recorded Kd of the following compound: CN1C(=O)[C@H](CO)NC(=O)[C@H](Cc2ccc(O)cc2)NC(=O)[C@@H](N)CCCC(=O)NC[C@@H](C(=O)N(C)[C@@H](Cc2ccc(F)cc2)C(N)=O)N(C)C(=O)[C@H](C2CC2)NC(=O)[C@H](Cc2c[nH]c3ccccc23)NC(=O)[C@H](Cc2c[nH]c3ccc(O)cc23)NC(=O)[C@H](CO)N(C)C(=O)[C@@H]1CCc1ccccc1 [Example A36, TFA salt] (H-[Aad]YS[NMehPhe][NMeS][Trp(5-OH)]W[Gly(cPr)][NMeDap][NMePhe(4-F)]-NH2; lactam 1-9) 38
